The measurements presented in this section are drawn from ChEMBL document CHEMBL2046404.

Test system: Mycobacterium tuberculosis
Experiment: Antitubercular activity against Mycobacterium tuberculosis H37Rv ATCC 27294 after 28 days by agar dilution method
Format: functional
Settings: H37Rv ATCC 27294, 672 h
Label key: satisfied means MIC under 10 µM; not satisfied means MIC of 10 µM or more.

// query Please indicate whether the reported MIC of CC(c1ccc2sc3ccccc3c2c1)n1cc(-c2ccc(-c3ccccc3)cc2)nn1 (stereo not given) is strictly below 10 µM.
// result not satisfied

// query And then CC(c1ccc2sc3ccccc3c2c1)n1cc(COCc2ccccc2)nn1 (stereo not given) , what is it?
// result satisfied

// query And for CC(c1ccc2sc3ccccc3c2c1)n1cc(-c2cc3ccccc3c3ccccc23)nn1 (stereo not given) ?
// result not satisfied

// query Moving on to the next compound: CCCCc1cn(C(C)c2ccc3c(c2)c2ccccc2n3C)nn1 (stereo not given)
// result not satisfied

// query Now the same for CC(c1ccc2sc3ccccc3c2c1)n1cc(-c2ccc([N+](=O)[O-])cc2)nn1 (stereo not given)
// result satisfied

// query // next record CC(c1ccc2sc3ccccc3c2c1)n1cc(-c2ccccc2)nn1 (stereo not given)
// result satisfied

// query Same lookup for CC(c1ccc2c(c1)c1ccccc1n2C)n1cc(-c2ccccc2[N+](=O)[O-])nn1 (stereo not given) , please.
// result not satisfied

// query Do the same for CC[C@@H](CO)NCCN[C@@H](CC)CO [ETHAMBUTOL] please
// result satisfied

// query Further, for CC(c1ccc2oc3ccccc3c2c1)n1cc(COCc2ccccc2)nn1 (stereo not given) ?
// result not satisfied

// query Follow-up entry: Cc1ccc(-c2cn(C(C)c3ccc4sc5ccccc5c4c3)nn2)cc1 (stereo not given)
// result satisfied
